Reference for the values: the NIST ThermoML archive (doi:10.1021/acs.jced.6b00112)

measurementConditions: 298.15 K; 101.33 kPa; Liquid; Vibrating tube method
reportedMetric: mass density (kg/m3)

>>> observedvalue("CCC(=O)O")
998.04
>>> observedvalue("CCc1ccccc1")
862.51
>>> observedvalue("CC(=O)O")
1044.12
>>> observedvalue("O=CO")
1219.5
>>> observedvalue("CCCC(=O)O")
952.68

---

procedureText: refractive index (Na D-line) (dimensionless)
measurementConditions: 298.15 K; 101.33 kPa; Liquid; Standard Abbe refractometry
reportedMetric: refractive index

>>> observedvalue("CCCC(=O)O")
1.3977
>>> observedvalue("O")
1.3324
>>> observedvalue("CCC(=O)O")
1.3807
>>> observedvalue("CC(=O)O")
1.3714
>>> observedvalue("O=CO")
1.371
>>> observedvalue("CCc1ccccc1")
1.493
